ASSAYED_TARGET: recombinant wild type PRDX1 (Homo sapiens)
Sequence (Q06830 1-199): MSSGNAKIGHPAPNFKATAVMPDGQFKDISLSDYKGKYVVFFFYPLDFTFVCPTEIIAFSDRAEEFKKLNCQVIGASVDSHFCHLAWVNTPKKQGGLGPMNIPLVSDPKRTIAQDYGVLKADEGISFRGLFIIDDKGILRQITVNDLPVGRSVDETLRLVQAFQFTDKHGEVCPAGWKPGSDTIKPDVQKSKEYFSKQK
ASSAY_NOTES: Surface plasmon resonance (SPR) assay
ENDPOINT: Kd (µM)
Please state the figure in µM; there is no need to write the unit.

Briefly, Kd measured for CC1=C(O)C(=O)C=C2C1=CC=C1[C@@]2(C)CC[C@@]2(C)[C@@H]3C[C@](C)(C(=O)O)CC[C@]3(C)CC[C@]12C [Celastrol, reference compound] : 0.36

----------
ASSAYED_TARGET: PRDX1 (Homo sapiens)
ASSAY_NOTES: Trx-TrxR-NADPH coupling peroxiredoxin activity assay, PRDX1
Format: biochemical
ENDPOINT: IC50 (nM)
Kindly provide the numeric value in nM only, without the unit symbol.

Sure, the documented IC50 for CC1=C(O)C(=O)C=C2C1=CC=C1[C@@]2(C)CC[C@@]2(C)[C@@H]3C[C@](C)(C(=O)O)CC[C@]3(C)CC[C@]12C [Celastrol, reference compound] is 290

----------
ASSAYED_TARGET: PRDX2 (Homo sapiens)
ASSAY_NOTES: Trx-TrxR-NADPH coupling peroxiredoxin activity assay, PRDX2
Assay type: biochemical
APPLIED_CONDITIONS: recombinant PRDX2, 1.5 h incubation, mean ± SEM, triplicate; read-out: IC50 against the peroxidase activity of PRDX2
ENDPOINT: IC50

Item: COC(=O)[C@H](C)NC(=O)N[C@]1(C)CC[C@]2(C)CC[C@]3(C)C4=CC=C5C(=CC(=O)C(O)=C5C)[C@]4(C)CC[C@@]3(C)[C@@H]2C1 | IC50: > 100 µM

----------
ASSAYED_TARGET: UniProt P30041
Sequence (P30041 whole entry): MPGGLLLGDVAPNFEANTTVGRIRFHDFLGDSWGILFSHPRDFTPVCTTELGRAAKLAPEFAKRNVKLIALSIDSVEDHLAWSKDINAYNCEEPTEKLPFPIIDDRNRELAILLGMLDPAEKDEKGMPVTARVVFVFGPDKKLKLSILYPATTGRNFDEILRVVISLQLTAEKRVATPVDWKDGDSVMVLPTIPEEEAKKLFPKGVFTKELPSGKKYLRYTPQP
ASSAY_NOTES: Trx-TrxR-NADPH coupling peroxiredoxin activity assay, PRDX6
Type: biochemical
APPLIED_CONDITIONS: recombinant PRDX6, 1.5 h incubation, mean ± SEM, triplicate; read-out: IC50 against the peroxidase activity of PRDX6
ENDPOINT: IC50
Form entry: enter the amount, then its unit.

Value sought: IC50, system UniProt P30041, item CC1=C(O)C(=O)C=C2C1=CC=C1[C@@]2(C)CC[C@@]2(C)[C@@H]3C[C@](C)(C(=O)O)CC[C@]3(C)CC[C@]12C [Celastrol, reference compound] . Result: 27.3 µM

----------
ASSAYED_TARGET: PRDX5 (Homo sapiens)
ASSAY_NOTES: Trx-TrxR-NADPH coupling peroxiredoxin activity assay, PRDX5
Type: biochemical
ENDPOINT: IC50
Could you kindly put the unit after your number?

Lookup result for CC1=C(O)C(=O)C=C2C1=CC=C1[C@@]2(C)CC[C@@]2(C)[C@@H]3C[C@](C)(C(=O)O)CC[C@]3(C)CC[C@]12C [Celastrol, reference compound] ; measured IC50: 2300 nM

----------
ASSAYED_TARGET: PRDX2 (Homo sapiens, UniProt P32119)
Sequence (P32119 whole entry): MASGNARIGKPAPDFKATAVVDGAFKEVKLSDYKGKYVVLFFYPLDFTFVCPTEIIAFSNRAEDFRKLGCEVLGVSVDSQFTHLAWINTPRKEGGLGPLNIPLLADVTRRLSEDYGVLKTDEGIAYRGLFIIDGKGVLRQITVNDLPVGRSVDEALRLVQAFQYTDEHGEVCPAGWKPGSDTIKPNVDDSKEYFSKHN
ASSAY_NOTES: Trx-TrxR-NADPH coupling peroxiredoxin activity assay, PRDX2
Format: biochemical
ENDPOINT: pIC50
Scale for pIC50: -log10 of concentration given in mol/L; no unit attached.

Item: CC1=C(O)C(=O)C=C2C1=CC=C1[C@@]2(C)CC[C@@]2(C)[C@@H]3C[C@](C)(C(=O)O)CC[C@]3(C)CC[C@]12C [Celastrol, reference compound] | pIC50: 5.42

----------
ASSAYED_TARGET: PRDX4 (Homo sapiens)
Sequence (Q13162 38-271): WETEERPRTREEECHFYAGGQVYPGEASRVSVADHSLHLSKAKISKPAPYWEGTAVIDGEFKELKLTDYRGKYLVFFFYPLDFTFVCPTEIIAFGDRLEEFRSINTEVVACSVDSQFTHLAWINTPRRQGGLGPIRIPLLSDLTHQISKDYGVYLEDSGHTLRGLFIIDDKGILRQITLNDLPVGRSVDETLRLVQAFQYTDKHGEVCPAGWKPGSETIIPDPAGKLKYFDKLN
ASSAY_NOTES: Trx-TrxR-NADPH coupling peroxiredoxin activity assay, PRDX4
Type: biochemical
ENDPOINT: IC50

Field IC50 (entry CC1=C(O)C(=O)C=C2C1=CC=C1[C@@]2(C)CC[C@@]2(C)[C@@H]3C[C@](C)(C(=O)O)CC[C@]3(C)CC[C@]12C [Celastrol, reference compound] ) reads > 100 µM

----------
ASSAYED_TARGET: PRDX1 (Homo sapiens)
Sequence (Q06830 1-199): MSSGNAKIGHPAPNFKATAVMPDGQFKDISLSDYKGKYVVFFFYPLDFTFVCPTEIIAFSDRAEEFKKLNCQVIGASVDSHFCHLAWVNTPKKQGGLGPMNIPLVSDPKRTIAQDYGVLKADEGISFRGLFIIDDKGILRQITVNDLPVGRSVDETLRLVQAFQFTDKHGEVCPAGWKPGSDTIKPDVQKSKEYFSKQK
ENDPOINT: Ki (nM)
The reply should contain only the number, in nM.

Reported Ki (PRDX1 (Homo sapiens)) for entry CC1=C(O)C(=O)C=C2C1=CC=C1[C@@]2(C)CC[C@@]2(C)[C@@H]3C[C@](C)(C(=O)O)CC[C@]3(C)CC[C@]12C [Celastrol, reference compound] is 950

----------
System: gNS SW620 cells
ASSAY_NOTES: Proliferation IC50 in scrambled (gNS) SW620 cells
Format: cell-based
APPLIED_CONDITIONS: Homo sapiens, SW-620, 24 h, read-out: IC50 against the proliferation of scrambled (gNS) SW620 cells
ENDPOINT: IC50

molecule="COC(=O)[C@H](C)NC(=O)N[C@]1(C)CC[C@]2(C)CC[C@]3(C)C4=CC=C5C(=CC(=O)C(O)=C5C)[C@]4(C)CC[C@@]3(C)[C@@H]2C1 [19-048]" measurement="0.529 µM"

Then this molecule:
The value of IC50 measured for the molecule CC1=C(O)C(=O)C=C2C1=CC=C1[C@@]2(C)CC[C@@]2(C)[C@@H]3C[C@](C)(C(=O)O)CC[C@]3(C)CC[C@]12C [Celastrol, reference compound] turned out to be 0.634 µM

----------
ASSAYED_TARGET: PRDX5 (Homo sapiens, UniProt P30044)
Sequence (P30044 53-214): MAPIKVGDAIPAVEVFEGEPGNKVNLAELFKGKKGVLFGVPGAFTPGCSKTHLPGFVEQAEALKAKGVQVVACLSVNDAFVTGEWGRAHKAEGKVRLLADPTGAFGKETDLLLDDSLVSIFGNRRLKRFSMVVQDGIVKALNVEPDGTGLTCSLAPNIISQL
ASSAY_NOTES: Trx-TrxR-NADPH coupling peroxiredoxin activity assay, PRDX5
Type: biochemical
APPLIED_CONDITIONS: recombinant PRDX5, 1.5 h incubation, mean ± SEM, triplicate; read-out: IC50 against the peroxidase activity of PRDX5
pIC50: −log10 of the molar value.
ENDPOINT: pIC50

response.value for COC(=O)[C@H](C)NC(=O)N[C@]1(C)CC[C@]2(C)CC[C@]3(C)C4=CC=C5C(=CC(=O)C(O)=C5C)[C@]4(C)CC[C@@]3(C)[C@@H]2C1 [19-048] (field: pIC50) = < 4.00

----------
System: HCT116 cells
ASSAY_NOTES: CCK-8 proliferation assay, HCT116
Assay type: cell-based
APPLIED_CONDITIONS: Homo sapiens, HCT-116; 24 h treatment
ENDPOINT: pIC50
Please treat pIC50 as minus the base-10 logarithm of the molar concentration.

compound=COC(=O)[C@H](C)NC(=O)N[C@]1(C)CC[C@]2(C)CC[C@]3(C)C4=CC=C5C(=CC(=O)C(O)=C5C)[C@]4(C)CC[C@@]3(C)[C@@H]2C1 measurement=6.09

Input CC1=C(O)C(=O)C=C2C1=CC=C1[C@@]2(C)CC[C@@]2(C)[C@@H]3C[C@](C)(C(=O)O)CC[C@]3(C)CC[C@]12C [Celastrol, reference compound] . Output pIC50: 6.05

----------
ASSAYED_TARGET: PRDX4 (Homo sapiens)
ASSAY_NOTES: Trx-TrxR-NADPH coupling peroxiredoxin activity assay, PRDX4
Format: biochemical
APPLIED_CONDITIONS: recombinant PRDX4, 1.5 h incubation; read-out: IC50 against the peroxidase activity of PRDX4
ENDPOINT: IC50

So for COC(=O)[C@H](C)NC(=O)N[C@]1(C)CC[C@]2(C)CC[C@]3(C)C4=CC=C5C(=CC(=O)C(O)=C5C)[C@]4(C)CC[C@@]3(C)[C@@H]2C1 , the logged IC50 turned out to be > 100 µM

----------
ASSAYED_TARGET: PRDX3 (Homo sapiens, UniProt P30048)
Sequence (P30048 62-256): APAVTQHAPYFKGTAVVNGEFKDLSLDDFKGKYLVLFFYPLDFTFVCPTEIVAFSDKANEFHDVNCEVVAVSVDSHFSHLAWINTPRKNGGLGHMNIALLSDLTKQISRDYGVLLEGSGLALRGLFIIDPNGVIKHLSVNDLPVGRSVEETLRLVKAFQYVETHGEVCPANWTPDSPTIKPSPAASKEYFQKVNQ
ASSAY_NOTES: Trx-TrxR-NADPH coupling peroxiredoxin activity assay, PRDX3
Assay type: biochemical
ENDPOINT: IC50 (µM)
API: value field is a number in µM; no unit string.

What the record says about CC1=C(O)C(=O)C=C2C1=CC=C1[C@@]2(C)CC[C@@]2(C)[C@@H]3C[C@](C)(C(=O)O)CC[C@]3(C)CC[C@]12C [Celastrol, reference compound] : IC50 is 6.67
